molecular target: human nerve growth factor (beta-NGF) (human, UniProt P01138 122-241); assay: cell-based or functional assay
Sequence (P01138 122-241): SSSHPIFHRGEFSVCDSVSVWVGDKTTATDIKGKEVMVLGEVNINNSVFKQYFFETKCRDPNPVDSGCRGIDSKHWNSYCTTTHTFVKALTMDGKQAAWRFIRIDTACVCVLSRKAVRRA
reported metric: IC50, FLIPR calcium mobilisation (nM)

[
  {
    "binder": "1214D10 human IgG4 (antibody, V domains shown) VH: EVQLVQSGAEAKKPGSSVKVSCKASGGTFSTYGISWVRQAPGRGLEWIGGIIPIFDTGNSAQSFQGRVAITADESTSTAYMEVSSLRSDDTAVYYCASSSRIYDAHLNHHGYYDMDVWGQGTMVTVSS VL: QAVLTQPSSVSTPPGQKVTISCSGSSSNIGNNYVSWYQQLPGTAPKLLIYDNNKRPSGIPDRFSGSKSGTSATLGITGLQAGDEADYYCGTWDSSLSAWVFGGGTKLTVL",
    "readout value": 0.29
  },
  {
    "binder": "G1152H5 human IgG4 (antibody, V domains shown, tested as whole human IgG4; also called germlined 1152H5) VH: QVQLVQSGAEVKKPGSSVKVSCKASGGTFSTYGISWVRQAPGQGLEWMGGIIPIFDTGNSAQSFQGRVTITADESTSTAYMELSSLRSEDTAVYYCARSSRIYDMISSLQPYYDMDVWGQGTMVTVSS VL: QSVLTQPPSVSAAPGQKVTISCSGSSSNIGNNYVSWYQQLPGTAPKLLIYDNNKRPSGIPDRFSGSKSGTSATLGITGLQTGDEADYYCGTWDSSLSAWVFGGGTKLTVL",
    "readout value": 0.22
  }
]

Data origin: patent US20080107658A1
